Overview of reported Ki across a group of compounds:
- System: Cannabinoid receptor 2 (Homo sapiens)
- Sequence (P34972 whole entry): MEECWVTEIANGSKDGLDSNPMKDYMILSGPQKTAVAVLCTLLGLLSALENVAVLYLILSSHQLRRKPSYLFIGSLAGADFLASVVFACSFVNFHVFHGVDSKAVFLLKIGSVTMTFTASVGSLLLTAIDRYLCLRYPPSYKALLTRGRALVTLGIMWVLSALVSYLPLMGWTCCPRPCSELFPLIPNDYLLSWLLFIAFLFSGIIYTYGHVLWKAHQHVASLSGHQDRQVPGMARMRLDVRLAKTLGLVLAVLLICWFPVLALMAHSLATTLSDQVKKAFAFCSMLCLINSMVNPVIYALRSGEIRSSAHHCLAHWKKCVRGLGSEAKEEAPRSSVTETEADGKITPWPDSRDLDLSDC
- Assay: Displacement of [3H]CP-55940 from human CB2 receptor expressed in HEK cells
- Assay type: cell-based, HEK293
Your answer is read as nM, so omit the unit and give the number.

- Substance smiles: "CCCCCn1cc(C(=O)NC23CC4CC(CC(C4)C2)C3)c(=O)c2cc(-c3ccc(F)cc3F)ccc21"
  System: "Cannabinoid receptor 2 (Homo sapiens)"
  Result unit: "nM"
  Ki: 16

Inquiry: Record request: Ki value, item CCCCCn1cc(C(=O)NC23CC4CC(CC(C4)C2)C3)c(=O)c2cc(-c3ccc(Cl)s3)ccc21
Reply text: 44.8

Inquiry: Record request: Ki value, item CCCCCn1cc(C(=O)NC23CC4CC(CC(C4)C2)C3)c(=O)c2cc(-c3ccc(Cl)cc3)ccc21
Reply text: 11

Inquiry: Record request: Ki value, item CCCCCn1cc(C(=O)NC23CC4CC(CC(C4)C2)C3)c(=O)c2cc(-c3cccs3)ccc21
Reply text: 2.3
